test_details: Partition between octanol and aqueous phosphate buffer pH 7
Format: physicochemical
measurement_parameters: pH 7
Rule: measured log KO/W (common logarithm of the partition coefficient) below 3 gets rule met; anything equal to or greater than 3 gets rule not met.

Request: I'd appreciate it if you could check whether `COC(=O)C1=CO[C@@H](C)[C@@H]2CN3CC[C@@]4(C(=O)Nc5ccccc54)[C@H]3C[C@H]12` has log KO/W (common logarithm of the partition coefficient) smaller than 3.
Response: rule met

Request: Record `COC(=O)C1=CO[C@@H](C)[C@@H]2CN3CC[C@@]4(C(=O)Nc5ccccc54)[C@@H]3C[C@H]12` : is its log KO/W (common logarithm of the partition coefficient) strictly below 3?
Response: rule not met

Request: Field: below-cutoff. Rule: recorded log KO/W (common logarithm of the partition coefficient) strictly less than 3. Subject: `COC(=O)C1=CO[C@@H](C)[C@@H]2CN3CC[C@]4(C(=O)Nc5ccccc54)[C@@H]3C[C@H]12`
Response: rule met

Request: Please check: log KO/W (common logarithm of the partition coefficient) for `COC(=O)C1=CO[C@@H](C)[C@H]2CN3CC[C@@]4(C(=O)Nc5ccccc54)[C@@H]3C[C@H]12` , strictly under 3 or not?
Response: rule met

Request: Confirm or reject: log KO/W (common logarithm of the partition coefficient) of `COC(=O)C1=CO[C@@H](C)[C@H]2CN3CC[C@]4(C(=O)Nc5ccccc54)[C@@H]3C[C@H]12` lies strictly below 3
Response: rule met
